Exercise: for every item that follows, state its recorded MBC.
- System: P. aeruginosa (ATCC 29853)
- assayProtocol: Broth microdilution assay, MIC/MBC
- Type: cell-based
- measurementSetup: Pseudomonas aeruginosa, ATCC29853

GET /values?readout=MBC&item= O=C1CSC(N2N=C(c3cccs3)CC2c2cccs2)=N1 (centres unmarked) [6a]
250 µg/mL

GET /values?readout=MBC&item= COc1ccc(OC)c(C2CC(c3cccs3)=NN2C(N)=S)c1 (centres unmarked) [2b]
500 µg/mL

GET /values?readout=MBC&item= COc1ccc(C=C2SC(N3N=C(c4cccs4)CC3c3cccs3)=NC2=O)cc1 (centres unmarked) [8a]
250 µg/mL

GET /values?readout=MBC&item= Cc1csc(N2N=C(c3cccs3)CC2c2cccs2)n1 (centres unmarked) [3a]
> 500 µg/mL

GET /values?readout=MBC&item= COc1ccc(C=C2SC(N3N=C(c4cccs4)CC3c3cc(OC)ccc3OC)=NC2=O)cc1 (centres unmarked) [8b]
500 µg/mL

###

- Tested on: P. aeruginosa (ATCC 29853)
- assayProtocol: Broth microdilution assay, MIC/MBC
- Format: cell-based
- measurementSetup: Pseudomonas aeruginosa, ATCC29853
Exercise: for every item that follows, state its recorded MIC.
# number only, unit µg/mL dropped from output

GET /values?readout=MIC&item= COc1ccc(OC)c(C2CC(c3cccs3)=NN2C(N)=S)c1 (centres unmarked)
62.2

GET /values?readout=MIC&item= O=C1CSC(N2N=C(c3cccs3)CC2c2cccs2)=N1 (centres unmarked)
62.5

GET /values?readout=MIC&item= O=C1N=C(N2N=C(c3cccs3)CC2c2cccs2)SC1=C1C(=O)Nc2ccccc21 (centres unmarked)
31.2

GET /values?readout=MIC&item= c1ccc(-c2csc(N3N=C(c4cccs4)CC3c3cccs3)n2)cc1 (centres unmarked)
125

GET /values?readout=MIC&item= COc1ccc(OC)c(C2CC(c3cccs3)=NN2c2nc(C)cs2)c1 (centres unmarked)
15.6

###

- System: M. tuberculosis (RCMB 010126)
- assayProtocol: Microplate alamar blue assay
- Format: cell-based, Mycobacterium tuberculosis
- measurementSetup: Mycobacterium tuberculosis, RCMB010126, sensitive Mycobacterium tuberculosis (RCMB 010126), MABA
Criterion: MIC strictly under 30 µg/mL. Met: label 1. Not met: label 0.

Lab note: MIC threshold 30 µg/mL. Does this molecule come in strictly under it? COc1ccc(OC)c(C2CC(c3cccs3)=NN2c2nc(-c3ccccc3)cs2)c1 (stereo not drawn)
label 0

Lab note: MIC threshold 30 µg/mL. Does this molecule come in strictly under it? O=C1CSC(N2N=C(c3cccs3)CC2c2cccs2)=N1 (stereo not drawn)
label 0

Lab note: MIC threshold 30 µg/mL. Does this molecule come in strictly under it? COc1ccc(C=C2SC(N3N=C(c4cccs4)CC3c3cccs3)=NC2=O)cc1 (stereo not drawn)
label 0

Lab note: MIC threshold 30 µg/mL. Does this molecule come in strictly under it? CCOC(=O)c1sc(N2N=C(c3cccs3)CC2c2cccs2)nc1C (stereo not drawn)
label 0

Lab note: MIC threshold 30 µg/mL. Does this molecule come in strictly under it? COc1ccc(OC)c(C2CC(c3cccs3)=NN2C2=NC(=O)C(C)S2)c1 (stereo not drawn)
label 0

Lab note: MIC threshold 30 µg/mL. Does this molecule come in strictly under it? O=C1N=C(N2N=C(c3cccs3)CC2c2cccs2)SC1=C1C(=O)Nc2ccccc21 (stereo not drawn)
label 1

Lab note: MIC threshold 30 µg/mL. Does this molecule come in strictly under it? COc1ccc(OC)c(C2CC(c3cccs3)=NN2C(N)=S)c1 (stereo not drawn)
label 1

Lab note: MIC threshold 30 µg/mL. Does this molecule come in strictly under it? COc1ccc(OC)c(C=C2SC(N3N=C(c4cccs4)CC3c3cccs3)=NC2=O)c1 (stereo not drawn)
label 1

Lab note: MIC threshold 30 µg/mL. Does this molecule come in strictly under it? O=C1CCSC(N2N=C(c3cccs3)CC2c2cccs2)=N1 (stereo not drawn) [10a]
label 0

Lab note: MIC threshold 30 µg/mL. Does this molecule come in strictly under it? c1ccc(-c2csc(N3N=C(c4cccs4)CC3c3cccs3)n2)cc1 (stereo not drawn)
label 0

Lab note: MIC threshold 30 µg/mL. Does this molecule come in strictly under it? COc1ccc(OC)c(C=C2SC(N3N=C(c4cccs4)CC3c3cc(OC)ccc3OC)=NC2=O)c1 (stereo not drawn)
label 0

Lab note: MIC threshold 30 µg/mL. Does this molecule come in strictly under it? CC1SC(N2N=C(c3cccs3)CC2c2cccs2)=NC1=O (stereo not drawn)
label 0

Lab note: MIC threshold 30 µg/mL. Does this molecule come in strictly under it? NNC(=O)c1ccncc1 [isoniazid, reference compound]
label 1

Lab note: MIC threshold 30 µg/mL. Does this molecule come in strictly under it? COc1ccc(OC)c(C2CC(c3cccs3)=NN2c2nc(C)cs2)c1 (stereo not drawn)
label 1

Lab note: MIC threshold 30 µg/mL. Does this molecule come in strictly under it? CCOC(=O)c1sc(N2N=C(c3cccs3)CC2c2cc(OC)ccc2OC)nc1C (stereo not drawn)
label 0

Lab note: MIC threshold 30 µg/mL. Does this molecule come in strictly under it? Cc1csc(N2N=C(c3cccs3)CC2c2cccs2)n1 (stereo not drawn)
label 0

###

- Test system: C. albicans (ATCC 10231)
- assayProtocol: Broth microdilution assay, antifungal MIC/MFC
- Type: cell-based, Candida albicans
- measurementSetup: C. albicans (ATCC 10231)
valueType: ratio (MFC/MIC)
Note: the reply should be a number with no unit written.

GET /values?readout=ratio (MFC/MIC)&item= COc1ccc(C=C2SC(N3N=C(c4cccs4)CC3c3cccs3)=NC2=O)cc1 (centres unmarked)
2

GET /values?readout=ratio (MFC/MIC)&item= O=C1CSC(N2N=C(c3cccs3)CC2c2cccs2)=N1 (centres unmarked)
4

GET /values?readout=ratio (MFC/MIC)&item= CC1SC(N2N=C(c3cccs3)CC2c2cccs2)=NC1=O (centres unmarked)
4

GET /values?readout=ratio (MFC/MIC)&item= COc1ccc(OC)c(C2CC(c3cccs3)=NN2c2nc(C)cs2)c1 (centres unmarked)
8

GET /values?readout=ratio (MFC/MIC)&item= O=C1N=C(N2N=C(c3cccs3)CC2c2cccs2)SC1=C1C(=O)Nc2ccccc21 (centres unmarked)
2

###

- Test system: P. aeruginosa (ATCC 29853)
- assayProtocol: Broth microdilution assay, MIC/MBC
- Format: cell-based
- measurementSetup: Pseudomonas aeruginosa, ATCC29853
Exercise: for every item that follows, state its recorded MBC.
# number only, unit µg/mL dropped from output

GET /values?readout=MBC&item= COc1ccc(OC)c(C2CC(c3cccs3)=NN2C2=NC(=O)C(C)S2)c1 (centres unmarked)
250

GET /values?readout=MBC&item= COc1ccc(OC)c(C2CC(c3cccs3)=NN2C2=NC(=O)CS2)c1 (centres unmarked)
15.6

GET /values?readout=MBC&item= c1ccc(-c2csc(N3N=C(c4cccs4)CC3c3cccs3)n2)cc1 (centres unmarked)
500

GET /values?readout=MBC&item= CCOC(=O)c1sc(N2N=C(c3cccs3)CC2c2cc(OC)ccc2OC)nc1C (centres unmarked)
62.2

GET /values?readout=MBC&item= COc1ccc(OC)c(C2CC(c3cccs3)=NN2C2=NC(=O)CCS2)c1 (centres unmarked) [10b]
250

GET /values?readout=MBC&item= Brc1ccc(-c2csc(N3N=C(c4cccs4)CC3c3cccs3)n2)cc1 (centres unmarked)
125

GET /values?readout=MBC&item= COc1ccc(OC)c(C2CC(c3cccs3)=NN2C2=NC(=O)C(=C3C(=O)Nc4ccccc43)S2)c1 (centres unmarked)
125

GET /values?readout=MBC&item= COc1ccc(OC)c(C=C2SC(N3N=C(c4cccs4)CC3c3cc(OC)ccc3OC)=NC2=O)c1 (centres unmarked)
125

GET /values?readout=MBC&item= O=C1N=C(N2N=C(c3cccs3)CC2c2cccs2)SC1=C1C(=O)Nc2ccccc21 (centres unmarked)
62.2

###

- Tested on: C. albicans (ATCC 10231)
- assayProtocol: Broth microdilution assay, antifungal MIC/MFC
- Type: cell-based, Candida albicans
- measurementSetup: C. albicans (ATCC 10231)
valueType: ratio (MFC/MIC)

GET /values?readout=ratio (MFC/MIC)&item= COc1ccc(OC)c(C2CC(c3cccs3)=NN2C2=NC(=O)C(=C3C(=O)Nc4ccccc43)S2)c1 (stereo not drawn)
16

GET /values?readout=ratio (MFC/MIC)&item= c1ccc(-c2csc(N3N=C(c4cccs4)CC3c3cccs3)n2)cc1 (stereo not drawn)
4

GET /values?readout=ratio (MFC/MIC)&item= COc1ccc(OC)c(C2CC(c3cccs3)=NN2C2=NC(=O)CS2)c1 (stereo not drawn)
4

GET /values?readout=ratio (MFC/MIC)&item= Brc1ccc(-c2csc(N3N=C(c4cccs4)CC3c3cccs3)n2)cc1 (stereo not drawn)
8

GET /values?readout=ratio (MFC/MIC)&item= COc1ccc(OC)c(C2CC(c3cccs3)=NN2c2nc(-c3ccccc3)cs2)c1 (stereo not drawn)
8

GET /values?readout=ratio (MFC/MIC)&item= Cc1csc(N2N=C(c3cccs3)CC2c2cccs2)n1 (stereo not drawn)
>4
